The reader will find reported TGI values listed item by item below.
Tested on: SNB-75 CNS
Test: NCI tumour cell line growth inhibition, 48 h
// units = µM; emit number, no label

Guide cases for TGI, answers given:
[B-][P+](CC[P+]1([B-])[C@@H](C)[C@@H](O)[C@H](O)[C@@H]1C)(c1ccccc1)c1ccccc1OC (stereo not given in full) = 28.3
COc1cccc(C2c3cc4c(cc3OC(NNS(=O)(=O)c3ccc(C)cc3)C2C)OCO4)c1OC (stereo not given) = 60.5
O=C1CCc2ccc(O)c(c2)Oc2ccc(cc2)C(Sc2ccccc2)CCO1 (stereo not given) = 28.4
Clc1ccccc1-c1nnc2c(Cc3ccccc3)nc3ccccc3n12 = 40.3

# input for lookup
Query block: Value lookup for TGI; key = CC(Nc1ccc(Cl)c(Cl)c1)c1ccncc1 (stereo not given)
Result block: 97.7
